# experiment: Caco-2 bidirectional permeability assay
# Type: in vitro ADME
# measurementContext: human; Caco-2, 10 μM, 2 hr; read-out: Efflux Ratio Papp(B→A) / Papp(A→B)
readout: efflux ratio at 2 hr, 10 μM

Would you mind telling me what efflux ratio at 2 hr, 10 μM value was observed for COc1cc2ncnc(Nc3ccc(Cl)cc3Cl)c2cc1OC [LDDN-0003499] ?
0.85

* * *

# experiment: Caco-2 bidirectional permeability assay
# Format: in vitro ADME
# measurementContext: human; Caco-2, 10 μM, 2 hr; read-out: mean B→A Papp
readout: Papp B→A at 2 hr, 10 μM (×10⁻⁶ cm/s)
Number only, in ×10⁻⁶ cm/s; omit the unit.

Would you mind telling me what Papp B→A at 2 hr, 10 μM value was observed for COc1cc2ncnc(Nc3ccc(Cl)cc3Cl)c2cc1OC ?
16.2

Reference source for all entries: paper PMC4498792
